# Protocol description: Plasma pharmacokinetics after single and multiple daily dosing
# Condition parameters: human, in vivo, 0.2 mg, AUC0–24, mean (SD)
Parameter: AUC(0-t) (ng·h/mL)
Return type: number; implicit unit ng·h/mL.

Look up AUC(0-t): Cn1ncnc1[C@H]1c2n[nH]c(=O)c3cc(F)cc(c23)N[C@@H]1c1ccc(F)cc1
9.13

---

# Protocol description: Plasma pharmacokinetics after single and multiple daily dosing
# Condition parameters: human, in vivo, 0.4 mg, Cmax, mean (SD)
Parameter: Cmax (ng/mL)
Return type: number; implicit unit ng/mL.

Look up Cmax: Cn1ncnc1[C@H]1c2n[nH]c(=O)c3cc(F)cc(c23)N[C@@H]1c1ccc(F)cc1 [talazoparib]
1.83

---

# Protocol description: Plasma pharmacokinetics after single and multiple daily dosing
# Condition parameters: human, in vivo, 1.1 mg, AUC0–24, mean (SD)
Parameter: AUC(0-t) (ng·h/mL)
Return type: number; implicit unit ng·h/mL.

Look up AUC(0-t): Cn1ncnc1[C@H]1c2n[nH]c(=O)c3cc(F)cc(c23)N[C@@H]1c1ccc(F)cc1
91.6

---

# Protocol description: Plasma pharmacokinetics after single and multiple daily dosing
# Condition parameters: human, in vivo, 1.1 mg, Vz/F, mean (SD)
Parameter: Vd/F (L)
Return type: number; implicit unit L.

Look up Vd/F: Cn1ncnc1[C@H]1c2n[nH]c(=O)c3cc(F)cc(c23)N[C@@H]1c1ccc(F)cc1
549

---

# Protocol description: Plasma pharmacokinetics after single and multiple daily dosing
# Condition parameters: human, in vivo, 0.4 mg, AUC0–t, mean (SD)
Parameter: AUC(0-t) (ng·h/mL)
Return type: number; implicit unit ng·h/mL.

Look up AUC(0-t): Cn1ncnc1[C@H]1c2n[nH]c(=O)c3cc(F)cc(c23)N[C@@H]1c1ccc(F)cc1 [talazoparib]
43.7

---

# Protocol description: Plasma pharmacokinetics after single and multiple daily dosing
# Condition parameters: human, in vivo, 1.1 mg, Tmax, median (min, max)
Parameter: Tmax (h)
Return type: number; implicit unit h.

Look up Tmax: Cn1ncnc1[C@H]1c2n[nH]c(=O)c3cc(F)cc(c23)N[C@@H]1c1ccc(F)cc1
1

---

# Protocol description: Plasma pharmacokinetics after single and multiple daily dosing
# Condition parameters: human, in vivo, 1 mg, Vz/F, mean (SD)
Parameter: Vd/F (L)
Return type: number; implicit unit L.

Look up Vd/F: Cn1ncnc1[C@H]1c2n[nH]c(=O)c3cc(F)cc(c23)N[C@@H]1c1ccc(F)cc1 [talazoparib]
415

---

# Protocol description: Plasma pharmacokinetics after single and multiple daily dosing
# Condition parameters: human, in vivo, 0.2 mg, t1/2, mean (SD)
Parameter: half-life (h)
Return type: number; implicit unit h.

Look up half-life: Cn1ncnc1[C@H]1c2n[nH]c(=O)c3cc(F)cc(c23)N[C@@H]1c1ccc(F)cc1 [talazoparib]
212

---

# Protocol description: Plasma pharmacokinetics after single and multiple daily dosing
# Condition parameters: human, in vivo, 0.9 mg, Tmax, median (min, max)
Parameter: Tmax
Reply with a number, then the unit it belongs to.

Look up Tmax: Cn1ncnc1[C@H]1c2n[nH]c(=O)c3cc(F)cc(c23)N[C@@H]1c1ccc(F)cc1
2 h

---

# Protocol description: Plasma pharmacokinetics after single and multiple daily dosing
# Condition parameters: human, in vivo, 0.6 mg, AUC0–t, mean (SD)
Parameter: AUC(0-t)

Look up AUC(0-t): Cn1ncnc1[C@H]1c2n[nH]c(=O)c3cc(F)cc(c23)N[C@@H]1c1ccc(F)cc1 [talazoparib]
97.9 ng·h/mL
